experiment: NCI Yeast Anticancer Drug Screen. Data for the mlh1 strain (AID 171); settings: S. cerevisiae mlh1 strain growth inhibition; at 33.0 µM
This is part of a sample that, as a whole, favours compounds with a hit. Of some 79,000 tested, about 15% had one in any assay. Active and inactive are the calls of the source. No stated cut-off is given here; in the data, active means growth inhibition above about 70%; inactive means the rest.
Result category, one only: active, inactive

[
  {
    "compound": "COc1ccc2c(c1)n([O-])c1ccccc1[n+]2=O",
    "group": "inactive"
  },
  {
    "compound": "COc1cc(/C=C2\\NC(=O)N(/C=C3\\C(=O)Oc4ccccc4C3=O)C2=O)ccc1O",
    "group": "active"
  },
  {
    "compound": "Cc1csc(=S)n1OC(=O)NC1CCCCC1",
    "group": "active"
  }
]

[in] Which outcome was assigned to Cc1nc(Nc2ccccc2[N+](=O)[O-])sc1C(=O)CC(=O)C(=O)Nc1c(C(C)C)cccc1C(C)C in this test?
[out] inactive

[in] Which outcome was assigned to COc1ccc2[nH]cc([C@@H]3C4CCC(C4)[C@H]3NCc3cccc(CN[C@H]4C5CCC(C5)[C@@H]4c4c[nH]c5ccc(OC)cc45)c3)c2c1 in this test?
[out] inactive
